experiment: in vitro; settings: human, hela cells, % viability
Under this convention, 1.0 denotes viability at 28.5 h, 10 µM strictly below 90% and 0.0 denotes viability at 28.5 h, 10 µM at or above 90%.

Regarding COc1ccc([C@@]23CC[C@@H](NC(=O)Nc4cc(C)ccc4F)C[C@@H]2N(C)CC3)cc1OC [CBK036509T] , kindly confirm whether its viability at 28.5 h, 10 µM is beneath 90%. 0.0

Identify whether the compound NNC(=O)CN(CCc1ccccc1)S(=O)(=O)c1ccc(Cl)cc1 records viability at 28.5 h, 10 µM below 90%. 1.0

I wonder whether O=C1c2ccccc2NC(c2cccc(O)c2)N1O (stereo not drawn) has viability at 28.5 h, 10 µM below 90%. Can you tell? 0.0

Dear reviewer, please state whether O=C(c1ccccc1NS(=O)(=O)c1ccc(Br)cc1)N1CCOCC1 has viability at 28.5 h, 10 µM strictly beneath 90%. 0.0

Identify whether the compound N#CC(NS(=O)(=O)c1ccc(OC(F)(F)F)cc1)c1ccccc1 (stereo not drawn) records viability at 28.5 h, 10 µM below 90%. 0.0

Record Nc1ncnc(NCCc2ccccc2)n1 : is its viability at 28.5 h, 10 µM strictly below 90%? 1.0

* * *

test system: C. trachomatis L2/434/Bu expressing GFP (CTL2-GFP); construct: L2/434/Bu GFP intracellular growth in HeLa cells; assay: microbe, parasite or virus in culture; parameters: C. trachomatis total inclusion area by high-content imaging, normalised to DMSO; details: Chlamydia trachomatis, HeLa, 28.5 h; total inclusion area; read-out: % of control remaining
MEASURED_PARAMETER: activity at 1 µM (%)
Field format: number, assumed %, no unit text.

What value of activity at 1 µM has been recorded for this entry: Cc1ccc(NC(=O)n2ccc3c(N4CCNCC4)cccc32)cc1[N+](=O)[O-] [CBK003747C] 75.6

What value of measured activity at 1 µM is listed for CCOC(=O)c1c(C)n(-c2ccc(C)cc2)c2ccc(O)c(CN(C)C)c12 [CBK263499C] ? 89

I am curious: what activity at 1 µM value has been reported for CCc1nnc(NS(=O)(=O)c2ccc(NC(=S)Nc3ccc(F)cc3)cc2)s1 ? 98.5

For O=C(OCCC1SC(NC2CC3C=CC2C3)=NC1=O)c1ccc(Cl)c([N+](=O)[O-])c1 (stereo not drawn) [CBK200060T] , what is its reported activity at 1 µM? 132

Look up activity at 1 µM: CCCCc1ccc(Nc2csc(N)n2)cc1 58.1

Look at this compound and give its reported activity at 1 µM. COc1ccc(N2CCN(C(=O)c3ccc([N+](=O)[O-])o3)CC2)cc1 128

Consider the compound O=C(CC1CCN(CCc2ccccc2)CC1)Nc1cccc(-n2cccn2)c1 and give its measured activity at 1 µM. 13.7

Please give the measured activity at 1 µM for this compound: COC(=O)N1CCc2ccc(N3C[C@H](CNC(C)=O)OC3=O)cc2CC1 128

Name the recorded activity at 1 µM for CC1=C(C)C(=NNC(N)=S)C(C)=C(C)C1=NNC(N)=S . 96.7

Need activity at 1 µM of N#CCCCN1CCC(Oc2cncc(OCc3ccc(Cl)c(Cl)c3)n2)C1 (stereo not drawn) , thanks. 118

Form field: reported activity at 1 µM of CCc1nnc(NS(=O)(=O)c2ccc(N/C=C3\C(=O)N(c4ccc(Cl)cc4)N=C3C)cc2)s1 102

Value lookup for activity at 1 µM; key = Cc1noc(NS(=O)(=O)c2ccc(NC(=O)COc3ccc(Cl)cc3Cl)cc2)c1C 102

Query: activity at 1 µM; subject: CC(NC(C)(C)C)C(O)COc1ccc(Cl)c2c1C1CCC2CC1 (stereo not drawn) [CBK017752C] 68

Give the measured activity at 1 µM of COc1ccc2[nH]cc(CCNC(=O)c3ccc([N+](=O)[O-])c(C)c3)c2c1 . 140

Look up activity at 1 µM for this compound: O=C(c1cccs1)N1C[C@H](c2ccc(F)cc2)[C@H]2CN(Cc3ccccc3)CC[C@H]21 74.8

Using the record for Cc1ccccc1Nc1nc(N)nc(CN2CCCC(C(F)(F)F)C2)n1 (stereo not drawn) , report its activity at 1 µM. 144

// returns reported activity at 1 µM for input O=C(NCCCn1ccnc1)c1cc(-c2cccc(Br)c2)nc2ccccc12 76.4

What value of activity at 1 µM has been recorded for this entry: Cc1cc(C)c2c(N)c(C(=O)Nc3ccc(Br)cc3)sc2n1 98.4

Data provenance is paper PMC12040169.
